This collection of values is drawn from ChEMBL document CHEMBL3988442.

The entries below come with measured Percent Effect values attached.
Test system: Wolbachia pipientis
Assay: Anti-Wolbachia Cell-Based Screen
Format: functional
Set-up: scale not given: in the data most compounds retested in dose-response had high values
Conditions: 5 µM
The campaign covered roughly 48,000 compounds. About 13,000 (27%) showed an effect of 50% or more. Some of the results follow.
Give the value, in units of %, as a plain number.

Worked cases, answers included:
O=C(NC[C@]1(O)CN(Cc2ccccc2F)C[C@H]1O)c1ccccn1
-4.429
CC(C)(C)c1cc(NC(=O)C2COCCO2)n(-c2ccccn2)n1 (stereo unspecified)
-13.16
Cc1noc(-c2cccnc2N(C)Cc2ccc([S+](C)[O-])cc2)n1 (stereo unspecified)
9.143

Query block: // fetch Wolbachia pipientis Percent Effect for "COc1ccccc1OCC(=O)NS(=O)(=O)c1cc(F)ccc1F"
Result block: -8.021

Query block: // fetch Wolbachia pipientis Percent Effect for Cc1cccc(CN2CCCC(O)(CNCCc3c[nH]cn3)C2=O)c1 (stereo unspecified)
Result block: 23.49

Query block: // fetch Wolbachia pipientis Percent Effect for O=C(C1CCOC1)N1CCN(CC(F)(F)F)c2ccccc21 (stereo unspecified)
Result block: 125.3

Query block: // fetch Wolbachia pipientis Percent Effect for Cc1cc(C(F)(F)F)nn1CCCNC(=O)C1CCCO1 (stereo unspecified)
Result block: 89.22

Query block: // fetch Wolbachia pipientis Percent Effect for CCOC(=O)C1=NOC(Cc2cc(OC)c3c(c2)OCO3)C1 (stereo unspecified)
Result block: 92.3

Query block: // fetch Wolbachia pipientis Percent Effect for "Cc1cncc(CN2CC[C@@](O)(CNC(=O)c3c[nH]cn3)[C@H](O)C2)c1"
Result block: 108.4

Query block: // fetch Wolbachia pipientis Percent Effect for O=C(C1COCCO1)N1CCN(CC(F)(F)F)c2ccccc21 (stereo unspecified)
Result block: 122.9

Query block: // fetch Wolbachia pipientis Percent Effect for "O=C(c1ccsc1)N1C[C@@H]2CCN(C(=O)c3cccc(F)c3)[C@@H]2C1"
Result block: -29.62
